# Test system: SNB-19 CNS
# Assay: NCI tumour cell line growth inhibition, 48 h; in the data active means GI50 below about 0.43 µM; inactive means the rest
Form entry, call: pick from t = active, f = inactive

Example entries begin here.
Nc1c(C(=O)c2cccc(C#CCN3CCOCC3)c2)cnn1-c1ccc(F)cc1	f
CCC[CH2][Ge]([CH2]CCC)([CH2]CCC)[O]C(=O)C(O)c1ccccc1 (centres undefined)	f
Fc1ccc(-c2nnc3sc(COc4ccccc4Cl)nn23)cc1Cl	f
CCC[CH2][Sn]([CH2]CCC)([O]C(=O)c1cc(OC)c(OC)cc1OC)[O]C(=O)c1cc(OC)c(OC)cc1OC	f

QUERY: Assay result, entry COc1cc2ccnc3c2c(c1OC)-c1ccc(=O)ccc1-3 — outcome?
RESULT: f

QUERY: Assay result, entry CC(=O)OC1CCC2(C)C(CCC3C4CC=C(C(C)=O)C4(C)OC(=O)CC32)C1 (centres undefined) — outcome?
RESULT: f
